- EXPERIMENT NOTES: Pharmacokinetics in rats after intravenous and intragastric administration
- RUN PARAMETERS: both, Sprague-Dawley, rat, in vivo, po, 40 mg/kg, MRT, rats, p.o. 40.0 mg/kg
READOUT: MRT
The answer consists of two parts: a number and, after it, its unit.

> print(dat)
                                  molecule  readout  result
1  COc1ccc2c(c1)[nH]c1c(C)nccc12 [Harmine]      MRT  4.41 h

Complete the entry with MRT for COc1ccc2c3c([nH]c2c1)C(C)=NCC3 [Harmaline]
6.24 h

* * *

- Test system: MCTs
- EXPERIMENT NOTES: in vitro
- RUN PARAMETERS: human, Caco-2, ER, Caco-2, 2 μM, + Phloretin 0.3 mM (MCTs)
- Experimental: Caco-2, MDCK and MDCK-MRP2 cells were donated by Prof. Yan Xie and Yueming Ma from Shanghai University of Traditional Chinese Medicine. […] The apparent permeability coefficients (Papp) and ER were calculated as Equations (2) and (3): […] where dQ/dt is the steady-state flux, A is the membrane surface area, and C0 is the initial drug concentration in the donor compartment. PappBA is the Papp-value measured in BL to AP direction and PappAB is the Papp-value measured in AP to BL direction. […]
READOUT: efflux ratio
Answers are plain numbers.

Quote efflux ratio with test system MCTs for COc1ccc2c3c([nH]c2c1)C(C)=NCC3 [Harmaline]
0.95

* * *

- Tested on: ATP (adenosine triphosphate)
- EXPERIMENT NOTES: Bidirectional transport in MDCK cell monolayers with selective transporter inhibitors or substrates
- Assay type: in vitro ADME, canine
- RUN PARAMETERS: dog, with NaN3 10 mM, + NaN3 10 mM (ATP)
- Method: Caco-2, MDCK and MDCK-MRP2 cells were donated by Prof. Yan Xie and Yueming Ma from Shanghai University of Traditional Chinese Medicine. […] The apparent permeability coefficients (Papp) and ER were calculated as Equations (2) and (3): […] where dQ/dt is the steady-state flux, A is the membrane surface area, and C0 is the initial drug concentration in the donor compartment. PappBA is the Papp-value measured in BL to AP direction and PappAB is the Papp-value measured in AP to BL direction. […]
READOUT: Papp A→B at 120 min, 2 μM (×10⁻⁶ cm/s)
Answers are plain numbers, in ×10⁻⁶ cm/s.

Complete the entry with Papp A→B at 120 min, 2 μM for "COc1ccc2c(c1)[nH]c1c(C)nccc12"
4.02

* * *

- Test system: MDR1
- EXPERIMENT NOTES: in vitro
- RUN PARAMETERS: human, Caco-2, ER, Caco-2, 2 μM, + Verapamil 0.1 mM (MDR1)
READOUT: efflux ratio
One number for each entry.

Complete the entry with efflux ratio for "COc1ccc2c3c([nH]c2c1)C(C)=NCC3"
0.94

* * *

- Test system: MRP2
- EXPERIMENT NOTES: Bidirectional transport in MDCK-MRP2 cell monolayers with MRP2 inhibitors
- Type: in vitro ADME, canine
- RUN PARAMETERS: dog, with MK571 0.05 mM (50 μM); MDCK-MRP2, 2 μM, + MK571 0.05 mM (MRP2); read-out: ER
READOUT: efflux ratio at 120 min, 2 μM
Give bare numbers.

Quote efflux ratio at 120 min, 2 μM with test system MRP2 for "COc1ccc2c3c([nH]c2c1)C(C)=NCC3"
1.34
